- Measurement Target: T1, Rb^P H699P (human, UniProt P06400 380-788, H699P)
- T1 construct: also called variant 63
- T1 sequence (looked up): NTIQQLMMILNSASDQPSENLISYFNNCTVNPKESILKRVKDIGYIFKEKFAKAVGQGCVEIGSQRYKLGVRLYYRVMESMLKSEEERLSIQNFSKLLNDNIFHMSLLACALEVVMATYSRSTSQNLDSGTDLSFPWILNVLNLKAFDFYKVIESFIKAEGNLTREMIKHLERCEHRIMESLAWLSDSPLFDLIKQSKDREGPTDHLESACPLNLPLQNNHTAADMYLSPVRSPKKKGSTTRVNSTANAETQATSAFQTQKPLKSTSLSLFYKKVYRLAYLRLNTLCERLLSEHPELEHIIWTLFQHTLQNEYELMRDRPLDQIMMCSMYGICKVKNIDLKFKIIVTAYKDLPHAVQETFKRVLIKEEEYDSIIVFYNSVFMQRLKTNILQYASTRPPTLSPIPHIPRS
- Experiment: fluorescence polarisation; 37 °C, after the 25 °C reading ramped over 7 min to 37 °C and 2 min incubation; unlabeled Rb^P against 1.5 nM TMR-E2F1^TD or 7.5 nM TMR-E7^LxCxE; 25 mM Tris pH 8.0, 200 mM NaCl, 1 mM DTT, 0.1% Tween-20; apparent Kd
- Test Conditions: both partners purified
No end group written: not given here. TMR = tetramethyl rhodamine dye
Result Type: pKd
Answer as the number alone; pKd is minus log10 of concentration in mol/L.

>  <Binder>
{TMR}-GEGIRDLFDCDFGDLTPLD (also called E2F^TD; source: synthetic peptide, bought: GenScript) [TMR-E2F1^TD, peptide of the E2F1 transactivation domain]

>  <pKd>
7.17

$$$$

INPUT: // lookup pKd for DLYCYEQLN (also: TMR label, position not given here, source: synthetic peptide, bought: GenScript) [TMR-E7^LxCxE, LxCxE peptide of the E7 oncoprotein from HPV]
OUTPUT: 7.85
